Molecular target: NEDD8-conjugating enzyme Ubc12 (Homo sapiens) + NEDD8-activating enzyme E1 regulatory subunit (Homo sapiens) (UniProt P61081+Q13564)
Sequence (P61081 whole entry, looked up): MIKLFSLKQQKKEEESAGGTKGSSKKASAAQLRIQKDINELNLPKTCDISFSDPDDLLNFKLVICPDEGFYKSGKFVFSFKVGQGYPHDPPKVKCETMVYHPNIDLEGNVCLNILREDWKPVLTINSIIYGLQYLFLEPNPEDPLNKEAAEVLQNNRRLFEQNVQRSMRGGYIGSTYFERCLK
Sequence (Q13564 whole entry, looked up): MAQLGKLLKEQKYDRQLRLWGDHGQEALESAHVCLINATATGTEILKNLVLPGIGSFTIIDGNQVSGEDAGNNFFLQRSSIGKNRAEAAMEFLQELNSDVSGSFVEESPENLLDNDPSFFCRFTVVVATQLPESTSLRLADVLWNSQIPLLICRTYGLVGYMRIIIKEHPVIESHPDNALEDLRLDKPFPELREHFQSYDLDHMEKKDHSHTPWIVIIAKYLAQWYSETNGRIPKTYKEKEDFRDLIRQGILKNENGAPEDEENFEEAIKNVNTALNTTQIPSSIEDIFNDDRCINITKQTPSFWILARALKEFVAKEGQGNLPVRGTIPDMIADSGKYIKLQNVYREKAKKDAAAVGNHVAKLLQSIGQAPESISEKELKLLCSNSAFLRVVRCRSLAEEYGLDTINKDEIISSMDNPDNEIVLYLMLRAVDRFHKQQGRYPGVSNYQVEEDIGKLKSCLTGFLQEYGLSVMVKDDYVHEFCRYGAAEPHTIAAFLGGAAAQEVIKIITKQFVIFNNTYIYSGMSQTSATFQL
Test: inhibitors of cullin neddylation, primary screen, biochemical, TR-FRET, uHTS, NAE and Ubc12 (AID 651699)
Settings: at 25 µM
Among all 360,000 compounds or so, about 2,100 (0.58%) were called active. Rule as the data show it: active = inhibition above about 36%; inactive = the rest. The entries come from a sample that favours actives as a whole.
Labels: YES = active, NO = inactive

# MOLECULE, ASSIGNED CATEGORY
measured = [
    ("CC(C)CC1(C)NC(=O)N(CC(=O)Nc2ccc3c(c2)OCCO3)C1=O (stereo not given)", "NO"),
    ("Cc1cc(C)c(C=NNc2nc3c([nH]2)c(=O)n(C)c(=O)n3C)c(C)c1", "YES"),
    ("O=C(NC(=S)Nc1ccc(Cl)c(C(=O)O)c1)c1cncc(Br)c1", "NO"),
    ("CCSC1=NCCN1S(=O)(=O)c1ccc(F)cc1", "NO"),
    ("COCCn1c(C)cc(C(=O)CSc2nnc(C3CC3)n2C2CC2)c1C", "NO"),
    ("Cc1ccc(NN=Nc2nc3c([nH]2)c(=O)n(C)c(=O)n3C)cc1", "NO"),
    ("COc1ccc2c(c1)C(C)=CC(C)(C)N2C(=O)Nc1ccccc1", "YES"),
    ("CC(NC(=O)CN1CCN(Cc2ccc(Cl)cc2)C1=O)c1ccc2c(c1)OCCO2 (stereo not given)", "NO"),
    ("CC(=O)NS(=O)(=O)c1ccc(N/C(N)=N/c2nc(C)cc(C)n2)cc1", "NO"),
    ("C[N+](C)(C)CCNC(=O)c1cc[n+](Cc2ccccc2)c(/C=N/O)c1", "NO"),
]

----------
Molecular target: NEDD8-conjugating enzyme Ubc12 (Homo sapiens) + NEDD8-activating enzyme E1 regulatory subunit (Homo sapiens) (UniProt P61081+Q13564)
Assay: inhibitors of cullin neddylation, primary screen, biochemical, TR-FRET, uHTS, NAE and Ubc12 (AID 651699)
Details: at 25 µM
The whole screen tested about 360,000 compounds, of which about 2,100 (0.58%) were called active. Cut-off read from the data, not from the text of the source: active = inhibition above about 36%; inactive = the rest. Many of the other results were omitted from the sample, so actives are more common in it than they were.
Labels: yes (1) = active, no (0) = inactive

# COMPOUND, ASSIGNED CATEGORY
measured = [
    ("CC1=C(C(=O)OCC2CCCCC2)C(c2ccc(F)cc2)NC(=O)N1 (configuration not stated)", "no (0)"),
    ("CC(=O)Nc1ccc(S(=O)(=O)N(CCc2ccccc2)CC(=O)N/N=C/c2ccc(C(=O)O)cc2)cc1", "no (0)"),
    ("CN(C)c1ccnc2sc(C(=O)c3ccccc3)c(N)c12", "yes (1)"),
    ("O=C(/C=C/c1cn(-c2ccccc2)nc1-c1ccc2c(c1)OCCO2)NCCCN1CCOCC1", "yes (1)"),
    ("O=C(NNC(=O)C1CCC1)c1ccccc1", "no (0)"),
    ("COC(=O)c1cc2c(N)c(C(=O)c3ccc(Cl)cc3)sc2nc1C(OC)OC", "no (0)"),
    ("CC(C)NC(=S)Nc1cccc2cnccc12", "no (0)"),
    ("CN(CC(=O)Nc1cccc(F)c1)C(=O)C1CC(=O)N(CCc2ccccc2)C1 (configuration not stated)", "no (0)"),
    ("CC(=O)OCC(C)n1c(=O)c2ccccc2n1C(C)=O (configuration not stated)", "no (0)"),
    ("O=C(CSc1nnc(-c2ccncc2)n1C1CCCCC1)Nc1ccccc1", "no (0)"),
    ("Cc1cccc2cc3c(N)c(C(=O)N4CCCc5ccccc54)sc3nc12", "no (0)"),
    ("CC(=O)c1c(Nc2ccccc2)sc(C(=O)c2ccccc2)c1C", "no (0)"),
    ("CCOC(=O)C1CCCN(C(=O)C2CCN(S(=O)(=O)c3ccc(Cl)c(C(F)(F)F)c3)CC2)C1 (configuration not stated)", "no (0)"),
    ("CCN(c1ccccc1)S(=O)(=O)c1ccc(OCC(=O)N2CCCC2)cc1", "no (0)"),
    ("CC(=O)Oc1c(C(=O)c2nnc(C)o2)c(=O)n(Cc2ccccc2)c2ccccc12", "yes (1)"),
    ("O=C(N/N=C/c1ccccc1O)C1CCCC1", "yes (1)"),
    ("Cc1nc2sc(C(=O)c3ccccc3)c(N)c2c2c1CCCC2", "yes (1)"),
    ("CC(C)c1ccc(/C=C/C(=O)NCCCN2CCOCC2)cc1", "no (0)"),
    ("COc1ccc(C2C(C(C)=O)=C(O)C(=O)N2CCc2c[nH]c3ccccc23)cc1 (configuration not stated)", "no (0)"),
    ("C[N+](C)(C)CCNC(=O)c1c[nH]c2ccccc12", "no (0)"),
    ("O=c1cc(CN2CCN(c3cccc(Cl)c3)CC2)c2cc3c(cc2o1)CCCC3", "no (0)"),
    ("COC(=O)c1noc(C)c1-c1ccnn1C(=O)c1ccc(Cl)cc1", "no (0)"),
]
